Please go through the items and note down their EC50.
Tested On: Cannabinoid receptor 2 (Mus musculus)
Sequence (P47936 whole entry): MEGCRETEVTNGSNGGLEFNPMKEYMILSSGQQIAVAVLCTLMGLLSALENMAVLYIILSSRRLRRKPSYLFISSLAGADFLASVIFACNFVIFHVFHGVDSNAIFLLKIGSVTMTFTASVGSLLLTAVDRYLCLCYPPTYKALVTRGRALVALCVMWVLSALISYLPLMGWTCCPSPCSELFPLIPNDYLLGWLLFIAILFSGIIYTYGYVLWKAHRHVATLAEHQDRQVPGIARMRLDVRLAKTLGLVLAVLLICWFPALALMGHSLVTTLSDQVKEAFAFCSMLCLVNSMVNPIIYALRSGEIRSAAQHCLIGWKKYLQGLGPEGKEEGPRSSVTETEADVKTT
Test Method Notes: Agonist activity at mouse CB2 receptor by cAMP read-out assay
Give bare numbers, in nM.

Take a look at these entries with their results.
CC1(C)CN(C(=O)C23CC4CC(CC(C4)C2)C3)c2ccccc21 : 40
O=C(N1CCCc2ccccc21)C12CC3CC(CC(C3)C1)C2 : 126
O=C(N1CCc2ccccc21)C12CC3CC(CC(O)(C3)C1)C2 : 1000
O=C(N1CCc2ccccc21)C12CC3CC(CC1C3)C2 : 51
O=C(NC12CC3CC(CC(C3)C1)C2)N1Cc2ccccc2C1 : 19
Cc1cccc2c1N(C(=O)C13CC4CC(CC(C4)C1)C3)CC2 : 50
CN1CCN(C(=O)C23CC4CC(CC(C4)C2)C3)c2ccccc21 : 22
CCOC1CCN(C(=O)C23CC4CC(CC(C4)C2)C3)c2ccccc21 (configuration not stated) : 28
COC1CCN(C(=O)C23CC4CC(CC(C4)C2)C3)c2ccccc21 (configuration not stated) : 23
O=C(N1CCc2cc(F)ccc21)C12CC3CC(CC(C3)C1)C2 : 9

Okay, here is my list. What is EC50 for each of these?
1. O=C(N1Cc2ccccc2C1)C12CC3CC(CC(C3)C1)C2
2. Cc1cccc2c1CCN2C(=O)C12CC3CC(CC(C3)C1)C2
3. O=C(N1CCc2ccccc21)C12CC3CC(CC(C3)C1)C2
4. COCCOC1CCN(C(=O)C23CC4CC(CC(C4)C2)C3)c2ccccc21 (configuration not stated)
5. O=C(N1CCc2ccc(C(F)(F)F)cc21)C12CC3CC(CC(C3)C1)C2
6. O=C(C1C2CC3CC(C2)CC1C3)N1CCc2ccccc21 (configuration not stated)

[7, 7, 26, 20, 2.9, 20]
